These measurements were taken from patent US5998442A.

As shown below, each of these compounds has a reported change in vivo at 1 mg/kg value.
# Test system: uterus, ovariectomized rats
# Experiment: Uterine weight in ovariectomized rats (4 days daily oral dosing)
# Format: in vivo, rat (female Sprague Dawley)
# Run Conditions: Rattus norvegicus, 96 h; 1.0 mg/kg PO; read-out: Uterine weight (% increase vs. OVX)
Observable: change in vivo at 1 mg/kg

INSERT INTO assay_data (compound, system_under_test, observable, reported_value) VALUES
  ('COc1ccc(-c2sc3cc(OC)ccc3c2C(=O)c2ccc(OCCN3CCCCC3)cc2)c(OC)c1 [Example 17]', 'uterus, ovariectomized rats', 'change in vivo at 1 mg/kg', '66.1%'),
  ('Cc1ccccc1-c1sc2cc(O)ccc2c1C(=O)c1ccc(OCCN2CCCCC2)cc1 [Example 23]', 'uterus, ovariectomized rats', 'change in vivo at 1 mg/kg', '12%'),
  ('O=C(c1ccc(OCCN2CCCCC2)cc1)c1c(-c2cccc(F)c2)sc2cc(O)ccc12 [Example 22]', 'uterus, ovariectomized rats', 'change in vivo at 1 mg/kg', '62.8%'),
  ('COc1ccc2c(C(=O)c3ccc(OCCN4CCCCC4)cc3)c(-c3cccc(F)c3)sc2c1 [Example 21]', 'uterus, ovariectomized rats', 'change in vivo at 1 mg/kg', '4.1%'),
  ('Cc1cc(-c2sc3cc(O)ccc3c2C(=O)c2ccc(OCCN3CCCCC3)cc2)ccc1O [Example 7]', 'uterus, ovariectomized rats', 'change in vivo at 1 mg/kg', '15.6%'),
  ('O=C(c1ccc(OCCN2CCCCC2)cc1)c1c(-c2ccccc2O)sc2cc(O)ccc12 [Example 10]', 'uterus, ovariectomized rats', 'change in vivo at 1 mg/kg', '-21%'),
  ('O=C(c1ccc(OCCN2CCCCC2)cc1)c1c(-c2ccc(O)c(Cl)c2)sc2cc(O)ccc12 [Example 5]', 'uterus, ovariectomized rats', 'change in vivo at 1 mg/kg', '20.7%'),
  ('Cc1cc(O)ccc1-c1sc2cc(O)ccc2c1C(=O)c1ccc(OCCN2CCCCC2)cc1 [Example 16]', 'uterus, ovariectomized rats', 'change in vivo at 1 mg/kg', '53.7%');
